FYI, the data here is from PubChem BioAssay (NCI).

Test system: OVCAR-5 ovarian
assay protocol: NCI tumour cell line growth inhibition, 48 h
Where a SMILES comes first, the peptide text is derived from it. [ ]: non-standard residue; d: D form. The star is where a group is joined. ξ: configuration not given here. ξF = NC(Cc1ccccc1)C(=O)O; Cbz = O=C(OCc1ccccc1)*; Aib = CC(C)(N)C(=O)O
Reported TGI by item:

molecule	TGI
O=C1CC(c2ccccc2)Cc2nc3ccc(Br)cc3cc21 (centres undefined)	> 100 µM
CCCC1CC(=O)NC(=O)C1C(=O)OC(C)(C)C (centres undefined)	> 100 µM
O=c1[nH]c(=O)n(C2CC(O)C(CO)O2)cc1C(F)(C(F)(F)F)C(F)(F)F (centres undefined)	> 100 µM
CSc1nc(CO)c(CO)n1C	> 100 µM
S=c1c2[nH]cnc2ncn1CCSC1=NC=NC2=NC=NC21 (centres undefined)	> 100 µM
CCCCCCn1c(SC)nc(COC(=O)NC)c1COC(=O)NC	34.6 µM
CC1(C)N=C(N)N=C(N)N1c1ccc(OCCCNC(=O)Nc2cccc(S(=O)(=O)F)c2)c(Cl)c1	> 100 µM
COC(=O)[C@]12CC[C@@H](C)[C@H](C)[C@@H]1C1=CC[C@@H]3[C@@]4(C)C[C@@H](OC(=O)/C=C/c5ccccc5)[C@H](O)[C@@](C)(CO)[C@@H]4[C@H](O)C[C@@]3(C)[C@]1(C)CC2	6 µM
N/N=C(\c1nc2ccc([N+](=O)[O-])cc2[nH]c1=O)C(O)c1ccc(Cl)c(Cl)c1 (centres undefined)	> 100 µM
C=CC(=O)NC(N)=NC#N	317 µM
N#Cc1c(NC(=O)c2ccc(F)cc2)sc2c1CCCC2	> 25 µM
CCOC(=O)CNC(=O)C(Cc1ccccc1)NC(=O)C(C)(C)NC(=O)OCc1ccccc1 (centres undefined) (Cbz-[Aib]-[ξF]-Gly-OEt)	> 100 µM
OCC(O)CNc1ncnc2ccccc12 (centres undefined)	> 100 µM
CN(Cc1cn(O)c2nc(=N)nc(N)c-2n1)c1ccc(C(=O)NC23CC4CC(CC(C4)C2)C3)cc1	> 100 µM
